System: EKVX NSCLC
Assay: NCI tumour cell line growth inhibition, 48 h
assayEndpoint: TGI

Provide the reported TGI of each entry below, same order.
1. CCn1c(-c2nonc2N)nc2cncc(C(=O)N3CCNCC3)c21
2. CSc1nnc(CCSc2ccnc3c(C(F)(F)F)cccc23)o1
3. C=CCC(N[C@H](CO)C(C)C)c1cn(C(=O)OCC)c2ccccc12 (stereo not given in full)
4. CCc1c(C)[nH]c(/C=C2\N=C(c3ccc[nH]3)C=C2OC)c1C
5. CC1CC2OC(=O)C3CC(O)CC(=C23)[C@@]12C[C@@H](c1ccoc1)OC2=O (stereo not given in full)
6. O=C(NC(C(F)(F)F)(C(F)(F)F)P(=O)(c1ccccc1)c1ccccc1)C(C(F)(F)F)C(F)(F)F
7. CS(=O)(=O)CC1=Nc2nnc(CCCCCCCc3nnc4n3C(=O)C(CS(C)(=O)=O)=N4)n2C1=O

Result:
> 25 µM
> 100 µM
77 µM
9.93 µM
> 100 µM
> 100 µM
> 100 µM

Provide the reported TGI of each entry below, same order.
1. CC[C@H](Nc1nc(N)nc(C)c1C#N)c1nc2cccc(CN(C)c3ncc(C(=O)NO)cn3)c2c(=O)n1-c1ccccc1
2. NCCCNCCCNCCCN
3. O=C(CC1Sc2ccccc2NC1=O)Nc1cc(Cl)ccc1Cl (stereo not given)

Result:
["16.9 µM", "> 100 µM", "> 100 µM"]

###

Test system: SF-539 CNS
Assay: NCI tumour cell line growth inhibition, 48 h
assayEndpoint: TGI

Provide the reported TGI of each entry below, same order.
1. CC1=NC(=O)C(C)(c2ccccc2)N1CCc1ccccc1 (configuration not stated)
2. O=C1CSC2(CC(/C=C/c3ccccc3O)=NN2c2cccc(S(=O)(=O)O)c2)N1c1nc2ccccc2s1 (configuration not stated)

Result:
1. > 100 µM
2. 48.8 µM

Provide the reported TGI of each entry below, same order.
1. O=C1c2cc3c(cc2CC12Cc1cc4c(cc1C2=O)CCCC4)CCCC3
2. O=C(O)[C@@H]1C2CC([C@@H]1C(=O)O)[C@H](N1C(=O)CCC1=O)[C@@H]2Br (some centres not stated)
3. Clc1cccc(Cl)c1C=NC12CC3CC(CC(C3)C1)C2
4. N#Cc1ncc(/N=C/c2ccc(N(CCCl)CCCl)cc2)s1
5. Cn1nc(Cc2ccc(Cl)cc2)n(N)c1=O
6. CN(C)CCCNC(=O)c1cc(NC(=O)CCNS(=O)(=O)c2ccc3c(c2)C(=O)c2ccccc2C3=O)cn1C
7. O=S(=O)([O-])[O-].[Fe+2].c1ccc(/C(=N\Nc2ccccn2)c2ccccn2)cc1
8. CC(C)(C(=O)NN)c1ccccc1

Result:
1: > 100 µM; 2: > 100 µM; 3: > 10 µM; 4: > 100 µM; 5: > 100 µM; 6: > 100 µM; 7: 6.42 µM; 8: > 100 µM

Provide the reported TGI of each entry below, same order.
1. O=c1[nH]c(=O)n(C2OC(CO)C(O)C(F)C2O)cc1F (configuration not stated)
2. O=C(O)CSSCC(=O)O
3. CCN(CC)c1ccc(/C=C/c2cc(C)c3ccccc3n2)cc1
4. CCN(CC)CCOc1ccc(C(=C(C)c2ccc(Cl)cc2)c2ccc(OCCN(CC)CC)cc2)cc1
5. COC(=O)CCC(=O)N1Cc2cc(C)ccc2N(C(=O)CCC(=O)OC)Cc2cc(C)ccc21
6. N#CSc1ncnc2nc[nH]c12
7. CC1C2CC(CC(=O)N2)C1(C)C (configuration not stated)
8. NC(=O)c1cc2ccccc2oc1=Nc1ccccc1

Result:
> 100 µM
> 100 µM
9.61 µM
1.1 µM
> 100 µM
> 65.9 µM
> 100 µM
> 100 µM

Provide the reported TGI of each entry below, same order.
1. CCOC(=O)c1nc2ccc(C(F)(F)F)cc2nc1NCc1ccc(Cl)c(Cl)c1
2. COc1cc2c(/C=C3/C(=O)Nc4ccc(Cl)cc43)c(Cl)n(Cc3ccccc3)c2cc1C
3. CC[C@H](Nc1nc(N)nc(C)c1C#N)c1nc2cccc(CN(C)c3ncc(C(=O)NO)cn3)c2c(=O)n1-c1ccccc1
4. COc1ccc(/C=C(\Cl)c2ccc(OC)c(OC)c2)cc1OC

Result:
["> 100 µM", "7.69 µM", "6.12 µM", "> 100 µM"]

###

System: HCC-2998 colon
Assay: NCI tumour cell line growth inhibition, 48 h; in the data active means GI50 below about 0.43 µM; inactive means the rest
Form entry, call: pick from true (active), false (inactive)

Here are 8 compounds together with their reported answers.
{"compound": "OCC1OC(n2ccc3c2ncn2ncnc32)C(O)C1O (stereo not drawn)", "category": "false"}
{"compound": "COc1cc(Cn2cc3c(c2)-c2oncc2CC3)cc(OC)c1OC", "category": "true"}
{"compound": "N=C(N)c1nn(C2OC(CO)C(O)C2O)c2nc[nH]c(=O)c12 (stereo not drawn)", "category": "false"}
{"compound": "O=S(=O)(c1ccc(NC(=S)NCc2cccnc2)cc1)N1CCCCC1", "category": "false"}
{"compound": "CC[C@H](Nc1nc(N)nc(C)c1C#N)c1nc2cccc(CN(C)c3ncc(C(=O)NO)cn3)c2c(=O)n1-c1ccccc1", "category": "false"}
{"compound": "CCCN1C(=O)/C(=c2\\sc3n(c2=O)C2C(NN=3)N(CC)C(=O)N2CC)c2ccccc21 (stereo not drawn)", "category": "false"}
{"compound": "CCN(CC)CCOc1ccc(C(=C(C)c2ccc(Cl)cc2)c2ccc(OCCN(CC)CC)cc2)cc1", "category": "false"}
{"compound": "O=C(CCN1CCCC1)Nc1ccc2c(NCc3ccc(F)cc3)c3ccccc3nc2c1", "category": "false"}

Ask: Hi, sorry to bother you, what did the test record for CCCN(Cc1ccc(F)cc1)c1ccc(CO)c(Cl)c1 ?
Result: false

Ask: Hi, sorry to bother you, what did the test record for CCOC(=O)Cc1c[nH]c(=S)[nH]c1=O ?
Result: false

###

Tested on: ACHN renal
Assay: NCI tumour cell line growth inhibition, 48 h
assayEndpoint: TGI

Provide the reported TGI of each entry below, same order.
1. O=C1NC(N2CCOCC2)=N/C1=C\c1cccs1
2. CSC1=N[C@H](c2ccccc2)CS1
3. Fc1c(F)c(C(F)(F)F)c(F)c(F)c1N/N=C\c1c[nH]c2ccccc12
4. COC(=O)CCC(=O)N1Cc2cc(C)ccc2N(C(=O)CCC(=O)OC)Cc2cc(C)ccc21

Result:
["> 100 µM", "> 100 µM", "19.5 µM", "> 100 µM"]

###

Tested on: UACC-62 melanoma
Assay: NCI tumour cell line growth inhibition, 48 h
assayEndpoint: TGI (µM)
One number for each entry, in µM.

{"molecule": "C=C(C)[C@@H]1CC[C@]2(C(=O)NCCCN)CC[C@]3(C)[C@H](CC[C@@H]4[C@@]5(C)CC[C@H](O)C(C)(C)[C@@H]5CC[C@]43C)[C@@H]12", "assayEndpoint": "TGI", "val": 93.2}

Provide the reported TGI of each entry below, same order.
1. CCCN1C(=O)/C(=c2\sc3n(c2=O)C2C(NN=3)N(CC)C(=O)N2CC)c2ccccc21 (stereo not given)
2. CCN(CC)c1ccc(/C=C/c2cc(C)c3ccccc3n2)cc1
3. CC[C@H](Nc1nc(N)nc(C)c1C#N)c1nc2cccc(CN(C)c3ncc(C(=O)NO)cn3)c2c(=O)n1-c1ccccc1

Result:
[17.4, 22.6, 0.897]

###

Field: TGI. Provide a value for each of the compounds that follow.
System: MOLT-4 leukemia
Assay: NCI tumour cell line growth inhibition, 48 h

{"compound": "NS(=O)(=O)c1cc2c(cc1Cl)NC(C(=O)c1cc(=O)c3ccc(O)cc3o1)=NS2(=O)=O", "targetSystem": "MOLT-4 leukemia", "TGI": "> 100 µM"}

Provide the reported TGI of each entry below, same order.
1. COc1cccc(C2=C(c3cn(C)c4ccccc34)C(=O)NC2=O)c1
2. N#CC(C#N)=CN1CCN(C(=O)c2ccco2)C1=S
3. CCCC(O)[C@@H](O)c1ccc2c(c1O)C(=O)c1c(OC)cccc1C2=O (stereo partly specified)
4. COc1ccc(/C=C2\OC(=O)C(Cl)=C2c2ccc(OC)cc2)cc1
5. C[C@H]1[C@H](C)N(Cc2ccccc2)P(=O)(C(O)/C=C/c2ccccc2)N1Cc1ccccc1 (stereo partly specified)
6. CC1(C)C(=O)N(O)C(C)(C)N1O

Result:
> 25 µM
> 100 µM
69.2 µM
> 100 µM
> 25 µM
> 10 µM

###

Test system: XF 498 CNS
Assay: NCI tumour cell line growth inhibition, 48 h
Field: TGI. Provide a value for each of the compounds that follow.

{"compound": "COc1ccc(Br)c2c1CC(C(=O)O)CC2 (stereo unspecified)", "TGI": "> 100 µM"}
{"compound": "NC(=S)NNC(=O)/C(=C/c1ccc(/C=C(\\NC(=O)c2ccccc2)C(=O)NNC(N)=S)cc1)NC(=O)c1ccccc1", "TGI": "> 100 µM"}

Provide the reported TGI of each entry below, same order.
1. C=CCONC(=O)c1ccc(Cl)cc1
2. CC(C)=CCCC1(C)C=Cc2c(c(C)cc3c2[nH]c2cc(O)ccc23)O1 (stereo unspecified)
3. CN(C)c1ccc2c(NCCCCCCNc3ccnc4cc(N(C)C)ccc34)ccnc2c1
4. O=C(NO)c1ccc([N+](=O)[O-])cc1
5. CCCC(O)[C@@H](O)c1ccc2c(c1O)C(=O)c1c(OC)cccc1C2=O (stereo partly specified)
6. O=C(NCCCCCCNC(=O)c1cccc2ccccc12)c1cccc2ccccc12
7. CCOC(=O)C=C1CCN(C(=O)c2ccccc2)CC1

Result:
> 100 µM
> 25 µM
11.9 µM
> 100 µM
36.3 µM
9.97 µM
> 100 µM

Provide the reported TGI of each entry below, same order.
1. Nc1cc(=O)[nH]c(SC2=NC(N)CC(O)C2)n1 (stereo unspecified)
2. CN(C(=O)C12C3C4C1C1C2C3C41I)C(C)(C)C (stereo unspecified)

Result:
> 100 µM
> 100 µM
